For each entry below, report its binding signal value.
Biological target: GST-Dm-Relish (Drosophila melanogaster, UniProt Q94527 99-473)
Sequence: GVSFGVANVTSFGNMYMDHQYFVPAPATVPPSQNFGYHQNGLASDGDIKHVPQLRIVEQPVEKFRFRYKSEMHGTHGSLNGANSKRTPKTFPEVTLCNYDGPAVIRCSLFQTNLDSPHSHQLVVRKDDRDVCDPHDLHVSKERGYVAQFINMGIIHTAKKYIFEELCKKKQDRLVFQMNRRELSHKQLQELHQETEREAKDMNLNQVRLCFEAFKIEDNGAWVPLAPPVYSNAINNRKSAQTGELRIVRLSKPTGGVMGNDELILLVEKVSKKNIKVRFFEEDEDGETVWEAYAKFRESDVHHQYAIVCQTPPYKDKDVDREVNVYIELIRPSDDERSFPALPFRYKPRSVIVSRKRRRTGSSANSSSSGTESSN
Experiment: protein-binding microarray (PBM); PBM: ~300 nM protein, 6 mM HEPES pH 7.8, 80 mM KCl, 0.5 mM EDTA, 0.5 mM EGTA, 6% glycerol, 35 ng/ul poly-dIdC, 1% milk, 1 h, room temperature; Ap Aiptasia and Nv Nematostella (sea anemones) / Co Capsaspora / Aq Amphimedon (sponge) / Dm Drosophila / Hu human; RHD is the Rel homology domain; high values mean tight binding
Settings: dsDNA, one strand shown

Look at this sequence and give its reported binding signal. CCGATTAACATCAGGGGGGAATATGATGTTAATCGGGTCTTGATTCGCTTGACGCTGCTG
5.21 z-score

Need binding signal, item CCGATTAACATCAGGGGGTTTTATGATGTTAATCGGGTCTTGATTCGCTTGACGCTGCTG
10 z-score

Quick check: binding signal of CCGATTAACATCAAAATTCCATATGATGTTAATCGGGTCTTGATTCGCTTGACGCTGCTG ?
1.14 z-score

If you can, please state the reported binding signal value of CCGATTAACATCAGGGGTGCCCATGATGTTAATCGGGTCTTGATTCGCTTGACGCTGCTG .
3.52 z-score

What does the record list as binding signal for CCGATTAACATCAGAAAAATTCCTGATGTTAATCGGGTCTTGATTCGCTTGACGCTGCTG ?
2.97 z-score
